system: PRMT1 (protein arginine N-methyltransferase 1); assay: PRMT1 binders on small-molecule microarrays, primary screen, biochemical, small-molecule microarray, 635 nm fluorescence (AID 1088); details: small-molecule microarray binding, higher = more signal
Quantity Measured: composite z-score

- Compound: "[N-]=[N+]=NCc1ccccc1[C@@H]1OC(c2ccc(OCCCO)cc2)=N[C@]1(Cc1ccccc1N=[N+]=[N-])C(=O)N1CCOCC1"
  Quantity Measured: "composite z-score"
  Quantitative Readout: 1.55
- Compound: "COc1ccc(NN2C(C(O)c3ccc([N+](=O)[O-])cc3)C=CC3C(=O)N(C4CCCCC4)C(=O)C32)cc1 (stereo not given)"
  Quantity Measured: "composite z-score"
  Quantitative Readout: 0.849
- Compound: "CC(CO)N1C(=O)[C@@H]2C3C(=O)OCCC/C=C\\[C@H]3OC23C=CCN(c2ccc4ccccc4c2)C(=O)[C@@H]13 (stereo not given in full)"
  Quantity Measured: "composite z-score"
  Quantitative Readout: 0.0691
- Compound: "NCCCCCNC(=O)[C@@H]1C[C@@H]2C(=O)NCC(=O)N2[C@@H]1c1ccc(O)cc1"
  Quantity Measured: "composite z-score"
  Quantitative Readout: 1.53
- Compound: "C=C(COC)/C(=C/C[C@@H](OC(C)=O)c1ccc(CO)o1)c1cnc2ccccc2c1"
  Quantity Measured: "composite z-score"
  Quantitative Readout: 1.54
- Compound: "C[C@]1(C(=O)NC2CC2)c2ccccc2C(=O)N(Cc2cc(C(F)(F)F)cc(C(F)(F)F)c2)[C@H]1c1ccc(CO)cc1"
  Quantity Measured: "composite z-score"
  Quantitative Readout: 1.38
- Compound: "CN1C(=O)C2C=CC(C(O)Cc3ccccc3)N(Nc3ccccc3)C2C1=O (stereo not given)"
  Quantity Measured: "composite z-score"
  Quantitative Readout: 0.0459
- Compound: "CC1CC/C=C\\[C@H]2OC34C=CCN(c5ccc(Cl)cc5)C(=O)[C@H]3N(CCO)C(=O)[C@]4(C)C2C(=O)O1 (stereo not given in full)"
  Quantity Measured: "composite z-score"
  Quantitative Readout: 0.517
- Compound: "CCN(CC)c1ccc(N2CC=CC34O[C@@H]5/C=C\\CCC(C)OC(=O)C5[C@H]3C(=O)N(C(CO)C(C)C)[C@@H]4C2=O)cc1 (stereo not given in full)"
  Quantity Measured: "composite z-score"
  Quantitative Readout: 0.746
- Compound: "CCCC=C(CCC)[C@@H](NS(=O)(=O)c1cccs1)c1ccc(C(=O)OC)cc1"
  Quantity Measured: "composite z-score"
  Quantitative Readout: 0.946
- Compound: "CC(C)(C)OC(=O)CC[C@@]1(C(=O)NCC(O)CO)N=C(c2ccc(OCCCO)cc2)O[C@@H]1c1ccccc1N=[N+]=[N-] (stereo not given in full)"
  Quantity Measured: "composite z-score"
  Quantitative Readout: 1.54
- Compound: "C=CCN1C(=O)[C@]2(O[C@H](CCO)[C@@H]([Si](C)(C)c3ccc(OC)cc3)[C@@H]2C)c2cc(N3CCCCC3=O)ccc21"
  Quantity Measured: "composite z-score"
  Quantitative Readout: 1.54
- Compound: "COc1ccc([Si](C)(C)[C@H]2[C@H](CCn3cc([C@H](O)c4ccccc4)nn3)O[C@@]3(C(=O)N(Cc4cccc(N5CCOC5=O)c4)c4ccccc43)[C@@H]2C)cc1"
  Quantity Measured: "composite z-score"
  Quantitative Readout: 0.961
- Compound: "CC1(C)[C@@H]2CC(C(O)C3C=CC4C(=O)N(c5ccccc5)C(=O)C4N3Nc3ccccc3)=C[C@H]1C2 (stereo not given in full)"
  Quantity Measured: "composite z-score"
  Quantitative Readout: -0.0035
- Compound: "CN(C)CCCNC(=O)[C@@]1(C)c2ccccc2C(=O)N(Cc2cc(F)cc(C(F)(F)F)c2)[C@H]1c1ccc(CO)cc1"
  Quantity Measured: "composite z-score"
  Quantitative Readout: 0.936
- Compound: "O=C1OCCC/C=C\\[C@H]2OC34C=CCN(Cc5ccccc5)C(=O)[C@H]3N(CCCCCCO)C(=O)[C@@H]4C12 (stereo not given in full)"
  Quantity Measured: "composite z-score"
  Quantitative Readout: -0.197
- Compound: "C=CCC(OC(C)=O)[C@@H]1[C@@H](N(Cc2ccc(-c3cccc(C(F)(F)F)c3)o2)C(=O)c2ccc(-c3ccccc3)cc2)c2cc(OCCCO)ccc2N1C(=O)c1ccc(-c2ccccc2)cc1 (stereo not given in full)"
  Quantity Measured: "composite z-score"
  Quantitative Readout: -0.432
- Compound: "COCCOC(=O)N1C(=O)[C@@]2(c3cc(C#Cc4ccc(OC)cc4)ccc31)[C@H](c1ccc(O)cc1)N1[C@H](c3ccccc3)[C@H](c3ccccc3)OC(=O)[C@H]1[C@@H]2C(=O)NC[C@H](O)c1ccccc1"
  Quantity Measured: "composite z-score"
  Quantitative Readout: 1.54
- Compound: "CC(C)(C)OC(=O)CC[C@@]12N=C(c3ccc(OCCCO)cc3)O[C@@H]1c1ccccc1N(CCS(=O)(=O)c1ccccc1)C2=O"
  Quantity Measured: "composite z-score"
  Quantitative Readout: 1.07
- Compound: "COCCOC(=O)N1C(=O)[C@@]2(c3cc(C#CCNC(N)=O)ccc31)[C@H](C(=O)NC[C@H](O)c1ccccc1)[C@H]1C(=O)O[C@H](c3ccccc3)[C@H](c3ccccc3)N1[C@@H]2c1ccccc1OCCO"
  Quantity Measured: "composite z-score"
  Quantitative Readout: 1.55

Origin of measurements: PubChem BioAssay
